target: Tubulin; assay: Inhibition of tubulin polymerization
In this section, each of the compounds is paired with its reported IC50.

Guide cases for IC50, answers given:
In [3]: df
Out[3]:
                   smilesrepresentation  obsvalue
0    Sc1nc(/C=C/c2ccccc2)nc2ccc(Cl)cc12   > 40 µM
1  COc1cc2nc(/C=C/c3ccccc3)nc(O)c2cc1OC    3.3 µM
2     Oc1nc(/C=C/c2ccccc2)nc2ccc(I)cc12    1.4 µM

-- ask Report the value of IC50 obtained on Tubulin for `O=c1[nH]c(/C=C/c2ccccc2)nc2ccccc12` .
-- reply 11 µM

-- ask Report the value of IC50 obtained on Tubulin for `O=S1(=O)N=C(/C=C/c2ccccc2)Nc2ccccc21` .
-- reply > 40 µM
